Test system: human monoclonal antibody CRJB
Type: binding
Field: label. Allowed values: T (Binding of CRJB (10 μg/ml) to looped/cyclic peptide (PEPSCAN-ELISA) < 90) or F (Binding of CRJB (10 μg/ml) to looped/cyclic peptide (PEPSCAN-ELISA) >= 90).

Reference set, count: 5
FFNGIILGPDGNVLI	F
VRTWNEILPSKGCLR	F
ASKGSETCGFVDERG	F
REECLDALESIMTTK	T
LVRKREECLDALESI	T

Input line: Just wondering, is Binding of CRJB (10 μg/ml) to looped/cyclic peptide (PEPSCAN-ELISA) of PSKGCLRVGGRCHPH below 90?
Output line: F

Input line: Just wondering, is Binding of CRJB (10 μg/ml) to looped/cyclic peptide (PEPSCAN-ELISA) of PGFGKAYTIFNKTLM below 90?
Output line: T

----------
Test system: human monoclonal antibody CR57
Assay type: binding
observable: Binding of CR57 to linear peptide (PEPSCAN-ELISA signal)
API doc: respond with a numeric literal and nothing else, no unit.

Recorded Binding of CR57 to linear peptide (PEPSCAN-ELISA signal), per entry:
LRKLVPGFGKAYTIF	83
YTNFVGYVTTTFKRK	51
ECLDALESIMTTKSV	91
SKGCLRVGGRCHPHV	72
RTWNEILPSKGCLRV	120
VVEDEGCTNLSGFSY	73

Input line: What Binding of CR57 to linear peptide (PEPSCAN-ELISA signal) value was documented for this sequence, NGIILGPDGNVLIPE ?
Output line: 102

Input line: What Binding of CR57 to linear peptide (PEPSCAN-ELISA signal) value was documented for this sequence, MAGDPRYEESLHNPY ?
Output line: 64

Input line: What Binding of CR57 to linear peptide (PEPSCAN-ELISA signal) value was documented for this sequence, TYCSTNHDYTIWMPE ?
Output line: 96

Input line: What Binding of CR57 to linear peptide (PEPSCAN-ELISA signal) value was documented for this sequence, QTSNETKWCPPDQLV ?
Output line: 92

Input line: What Binding of CR57 to linear peptide (PEPSCAN-ELISA signal) value was documented for this sequence, EILPSKGCLRVGGRC ?
Output line: 104

Input line: What Binding of CR57 to linear peptide (PEPSCAN-ELISA signal) value was documented for this sequence, FFNGIILGPDGNVLI ?
Output line: 92

Input line: What Binding of CR57 to linear peptide (PEPSCAN-ELISA signal) value was documented for this sequence, CDIFTNSRGKRASKG ?
Output line: 42

----------
System: human monoclonal antibody CRJB
Format: binding
observable: Binding of CRJB (10 μg/ml) to looped/cyclic peptide (PEPSCAN-ELISA signal)
API doc: respond with a numeric literal and nothing else, no unit.

Recorded Binding of CRJB (10 μg/ml) to looped/cyclic peptide (PEPSCAN-ELISA signal), per entry:
SLVIISPSVADLDPY	85
NPYPDYRWLRTVKTT	92
NYTNFVGYVTTTFKR	88

Input line: What Binding of CRJB (10 μg/ml) to looped/cyclic peptide (PEPSCAN-ELISA signal) value was documented for this sequence, FSYMELKVGYILAIK ?
Output line: 72

Input line: What Binding of CRJB (10 μg/ml) to looped/cyclic peptide (PEPSCAN-ELISA signal) value was documented for this sequence, SPIDIHHLSCPNNLV ?
Output line: 72

Input line: What Binding of CRJB (10 μg/ml) to looped/cyclic peptide (PEPSCAN-ELISA signal) value was documented for this sequence, YVTTTFKRKHFRPTP ?
Output line: 111

Input line: What Binding of CRJB (10 μg/ml) to looped/cyclic peptide (PEPSCAN-ELISA signal) value was documented for this sequence, GFTCTGVVTEAENYT ?
Output line: 68

Input line: What Binding of CRJB (10 μg/ml) to looped/cyclic peptide (PEPSCAN-ELISA signal) value was documented for this sequence, LHSRVFPSGKCSGVA ?
Output line: 111

Input line: What Binding of CRJB (10 μg/ml) to looped/cyclic peptide (PEPSCAN-ELISA signal) value was documented for this sequence, MNGFTCTGVVTEAEN ?
Output line: 118

----------
Test system: human monoclonal antibody CR57
Assay type: binding
Measured Binding of CR57 to linear peptide (PEPSCAN-ELISA signal), listed per entry.
API doc: respond with a numeric literal and nothing else, no unit.

Recorded Binding of CR57 to linear peptide (PEPSCAN-ELISA signal), per entry:
SPSVADLDPYDRSLH	59
CKLKLCGVLGLRLMD	410
DPRYEESLHNPYPDY	57

Input line: What Binding of CR57 to linear peptide (PEPSCAN-ELISA signal) value was documented for this sequence, GFSYMELKVGYILAI ?
Output line: 65

Input line: What Binding of CR57 to linear peptide (PEPSCAN-ELISA signal) value was documented for this sequence, LDALESIMTTKSVSF ?
Output line: 97

Input line: What Binding of CR57 to linear peptide (PEPSCAN-ELISA signal) value was documented for this sequence, GKAYTIFNKTLMEAD ?
Output line: 76

Input line: What Binding of CR57 to linear peptide (PEPSCAN-ELISA signal) value was documented for this sequence, ENYTNFVGYVTTTFK ?
Output line: 44

Input line: What Binding of CR57 to linear peptide (PEPSCAN-ELISA signal) value was documented for this sequence, YTIFNKTLMEADAHY ?
Output line: 104

----------
Tested on: human monoclonal antibody CR57
Format: binding
Measured Binding of CR57 to linear peptide (PEPSCAN-ELISA signal), listed per entry.
API doc: respond with a numeric literal and nothing else, no unit.

PSKGCLRVGGRCHPH	69
AYNWKMAGDPRYEES	96
GYILAIKMNGFTCTG	75

Input line: What Binding of CR57 to linear peptide (PEPSCAN-ELISA signal) value was documented for this sequence, AHYKSVRTWNEILPS ?
Output line: 112

Input line: What Binding of CR57 to linear peptide (PEPSCAN-ELISA signal) value was documented for this sequence, YMELKVGYILAIKMN ?
Output line: 78

Input line: What Binding of CR57 to linear peptide (PEPSCAN-ELISA signal) value was documented for this sequence, LVPGFGKAYTIFNKT ?
Output line: 54

Input line: What Binding of CR57 to linear peptide (PEPSCAN-ELISA signal) value was documented for this sequence, SLHNPYPDYRWLRTV ?
Output line: 78

Input line: What Binding of CR57 to linear peptide (PEPSCAN-ELISA signal) value was documented for this sequence, KREECLDALESIMTT ?
Output line: 102

Input line: What Binding of CR57 to linear peptide (PEPSCAN-ELISA signal) value was documented for this sequence, GYVTTTFKRKHFRPT ?
Output line: 70

----------
Test system: human monoclonal antibody CR57
Type: binding
Measured Binding of CR57 (10 μg/ml) to looped/cyclic peptide (PEPSCAN-ELISA), listed per entry.
API doc: respond with a numeric literal and nothing else, no unit.

Recorded Binding of CR57 (10 μg/ml) to looped/cyclic peptide (PEPSCAN-ELISA), per entry:
PSKGCLRVGGRCHPH	92
ADAHYKSVRTWNEIL	69
LESIMTTKSVSFRRL	94

Input line: Kindly state the measured Binding of CR57 (10 μg/ml) to looped/cyclic peptide (PEPSCAN-ELISA) obtained for EHLVVEELVRKREEC with human monoclonal antibody CR57.
Output line: 89

Input line: Kindly state the measured Binding of CR57 (10 μg/ml) to looped/cyclic peptide (PEPSCAN-ELISA) obtained for EILPSKGCLRVGGRC with human monoclonal antibody CR57.
Output line: 132

Input line: Kindly state the measured Binding of CR57 (10 μg/ml) to looped/cyclic peptide (PEPSCAN-ELISA) obtained for YKSVRTWNEILPSKG with human monoclonal antibody CR57.
Output line: 117

Input line: Kindly state the measured Binding of CR57 (10 μg/ml) to looped/cyclic peptide (PEPSCAN-ELISA) obtained for ELLESSVIPLVHPLA with human monoclonal antibody CR57.
Output line: 112

Input line: Kindly state the measured Binding of CR57 (10 μg/ml) to looped/cyclic peptide (PEPSCAN-ELISA) obtained for VNLHDFRSDEIEHLV with human monoclonal antibody CR57.
Output line: 97

Input line: Kindly state the measured Binding of CR57 (10 μg/ml) to looped/cyclic peptide (PEPSCAN-ELISA) obtained for GCLRVGGRCHPHVNG with human monoclonal antibody CR57.
Output line: 103

----------
System: human monoclonal antibody CRJA
Type: binding
Measured Binding of CRJA to looped/cyclic peptide (PEPSCAN-ELISA signal), listed per entry.
API doc: respond with a numeric literal and nothing else, no unit.

Recorded Binding of CRJA to looped/cyclic peptide (PEPSCAN-ELISA signal), per entry:
NQVSGVDLGLPNWGK	79
PDVHNQVSGVDLGLP	115
VFKDGDEAEDFVEVH	104
LPDVHNQVSGVDLGL	98
VHLPDVHNQVSGVDL	92
VHPLADPSTVFKDGD	99
PLADPSTVFKDGDEA	97
VEVHLPDVHNQVSGV	120
TVFKDGDEAEDFVEV	110
DPSTVFKDGDEAEDF	110

Input line: What Binding of CRJA to looped/cyclic peptide (PEPSCAN-ELISA signal) value was documented for this sequence, DEAEDFVEVHLPDVH ?
Output line: 98

Input line: What Binding of CRJA to looped/cyclic peptide (PEPSCAN-ELISA signal) value was documented for this sequence, FKDGDEAEDFVEVHL ?
Output line: 97

Input line: What Binding of CRJA to looped/cyclic peptide (PEPSCAN-ELISA signal) value was documented for this sequence, AEDFVEVHLPDVHNQ ?
Output line: 101

These entries and their values trace back to patent US20060263802A1.
